System: JG3 (strain of marine origin)
run.description: MARA indicator device toxic fingerprint, microorganism no. 3
measurement.setup: Microbial Toxic Concentration; incubation time 16 h
Experimental: • dispense 150 μl of growth medium with indicator in each well • add a concentration gradient of the chemical to be tested to rows B-H in a MARA plate (i.e. an indicator device according to the present invention) • incubate for 16 h • read absorbance values; and • analyse with software. Microbial responses to different chemicals was estimated by kinetic measurements of their growth using the Labsystem automated IEMS reader. […]
Structures can show the parent of a compound that is named as a salt.
Label scheme for Toxic fingerprint: MTC value for microorganism no. 3: lower than 0.5 is class 0, 0.5 and above is class 1.

The examples below pair each entry with its known result.
[Cl-].[K+] [Potassium Chloride] = class 1
COc1ccc(CCN(C)CCCC(C#N)(c2ccc(OC)c(OC)c2)C(C)C)cc1OC (stereo not drawn) [Verapamil HCl] = class 0
[N-]=[N+]=[N-] [Sodium Azide] = class 0
O=[N+]([O-])[O-].O=[N+]([O-])[O-].[Ba+2] [Barium nitrate] = class 1
[Cl-].[Cl-].[Mg+2] [Magnesium Chloride] = class 1

Could you tell me if the measured Toxic fingerprint: MTC value for microorganism no. 3 of C[C@H]1O[C@@H](O[C@H]2[C@@H](O)C[C@H](O[C@H]3[C@@H](O)C[C@H](O[C@H]4CC[C@@]5(C)[C@H](CC[C@@H]6[C@@H]5C[C@@H](O)[C@]5(C)[C@@H](C7=CC(=O)OC7)CC[C@]65O)C4)O[C@@H]3C)O[C@@H]2C)C[C@H](O)[C@@H]1O [Digoxin] reaches 0.5 or more?
class 0

----------
Test system: Staphylococcus epidermidis (Karin12)
run.description: MARA indicator device toxic fingerprint, microorganism no. 11
measurement.setup: Microbial Toxic Concentration; incubation time 16 h
experimental.readout: Toxic fingerprint: MTC value for microorganism no. 11
// no unit string in output, number only

C[C@H]1O[C@@H](O[C@H]2[C@@H](O)C[C@H](O[C@H]3[C@@H](O)C[C@H](O[C@H]4CC[C@@]5(C)[C@H](CC[C@@H]6[C@@H]5C[C@@H](O)[C@]5(C)[C@@H](C7=CC(=O)OC7)CC[C@]65O)C4)O[C@@H]3C)O[C@@H]2C)C[C@H](O)[C@@H]1O = 0.104
O=[N+]([O-])[O-].O=[N+]([O-])[O-].[Ba+2] [Barium nitrate] = 0.466
Oc1c(Cl)c(Cl)c(Cl)c(Cl)c1Cl = 0.001

Now for the compound whose Toxic fingerprint: MTC value for microorganism no. 11 we want.
Provide Toxic fingerprint: MTC value for microorganism no. 11 value for the following compound: [N-]=[N+]=[N-] [Sodium Azide]
0.146

----------
Test system: JG2 (strain of marine origin)
measurement.setup: Microbial Toxic Concentration; incubation time 16 h
Protocol: • dispense 150 μl of growth medium with indicator in each well • add a concentration gradient of the chemical to be tested to rows B-H in a MARA plate (i.e. an indicator device according to the present invention) • incubate for 16 h • read absorbance values; and • analyse with software. Microbial responses to different chemicals was estimated by kinetic measurements of their growth using the Labsystem automated IEMS reader. […]
Counter-ions that a name gives are not always drawn.
experimental.readout: Toxic fingerprint: MTC value for microorganism no. 2
// no unit string in output, number only

Cn1c(=O)c2c(ncn2C)n(C)c1=O = 1.010
[N-]=[N+]=[N-] [Sodium Azide] = 0.045
[Cl-].[K+] [Potassium Chloride] = 29.400
C[C@H]1O[C@@H](O[C@H]2[C@@H](O)C[C@H](O[C@H]3[C@@H](O)C[C@H](O[C@H]4CC[C@@]5(C)[C@H](CC[C@@H]6[C@@H]5C[C@@H](O)[C@]5(C)[C@@H](C7=CC(=O)OC7)CC[C@]65O)C4)O[C@@H]3C)O[C@@H]2C)C[C@H](O)[C@@H]1O = 0.937
Oc1c(Cl)c(Cl)c(Cl)c(Cl)c1Cl = 0.001

Provide Toxic fingerprint: MTC value for microorganism no. 2 value for the following compound: CSc1ccc2c(c1)N(CCC1CCCCN1C)c1ccccc1S2 (stereo not drawn) [Tioridazin HCl]
0.017

Provide Toxic fingerprint: MTC value for microorganism no. 2 value for the following compound: COc1ccc(CCN(C)CCCC(C#N)(c2ccc(OC)c(OC)c2)C(C)C)cc1OC (stereo not drawn) [Verapamil HCl]
0.247

Provide Toxic fingerprint: MTC value for microorganism no. 2 value for the following compound: [Cl-].[Cl-].[Mg+2] [Magnesium Chloride]
9.660

Provide Toxic fingerprint: MTC value for microorganism no. 2 value for the following compound: O=[N+]([O-])[O-].O=[N+]([O-])[O-].[Ba+2] [Barium nitrate]
0.205

----------
Test system: JG1 (strain of marine origin)
measurement.setup: Microbial Toxic Concentration; incubation time 16 h
Counter-ions that a name gives are not always drawn.
Label scheme for Toxic fingerprint: MTC value for microorganism no. 1: lower than 1 is -1, 1 and above is 1.

The examples below pair each entry with its known result.
COc1ccc(CCN(C)CCCC(C#N)(c2ccc(OC)c(OC)c2)C(C)C)cc1OC (stereo not drawn) [Verapamil HCl] = -1
O=[N+]([O-])[O-].O=[N+]([O-])[O-].[Ba+2] [Barium nitrate] = 1

Could you tell me if the measured Toxic fingerprint: MTC value for microorganism no. 1 of [Cl-].[Cl-].[Mg+2] [Magnesium Chloride] reaches 1 or more?
1

Could you tell me if the measured Toxic fingerprint: MTC value for microorganism no. 1 of [N-]=[N+]=[N-] [Sodium Azide] reaches 1 or more?
-1

Could you tell me if the measured Toxic fingerprint: MTC value for microorganism no. 1 of C[C@H]1O[C@@H](O[C@H]2[C@@H](O)C[C@H](O[C@H]3[C@@H](O)C[C@H](O[C@H]4CC[C@@]5(C)[C@H](CC[C@@H]6[C@@H]5C[C@@H](O)[C@]5(C)[C@@H](C7=CC(=O)OC7)CC[C@]65O)C4)O[C@@H]3C)O[C@@H]2C)C[C@H](O)[C@@H]1O [Digoxin] reaches 1 or more?
1

Could you tell me if the measured Toxic fingerprint: MTC value for microorganism no. 1 of [Cl-].[K+] [Potassium Chloride] reaches 1 or more?
1

----------
System: β-proteobacterium A22 (Kalmar 200)
run.description: MARA indicator device toxic fingerprint, microorganism no. 5
measurement.setup: Microbial Toxic Concentration; incubation time 16 h
Where a name gives a salt, the structure may show the parent alone.
Below, each entry is listed alongside its reported Toxic fingerprint: MTC value for microorganism no. 5.

Cn1c(=O)c2c(ncn2C)n(C)c1=O = 0.973

Provide Toxic fingerprint: MTC value for microorganism no. 5 value for the following molecule: "C[C@H]1O[C@@H](O[C@H]2[C@@H](O)C[C@H](O[C@H]3[C@@H](O)C[C@H](O[C@H]4CC[C@@]5(C)[C@H](CC[C@@H]6[C@@H]5C[C@@H](O)[C@]5(C)[C@@H](C7=CC(=O)OC7)CC[C@]65O)C4)O[C@@H]3C)O[C@@H]2C)C[C@H](O)[C@@H]1O"
0.927

Provide Toxic fingerprint: MTC value for microorganism no. 5 value for the following molecule: COc1ccc(CCN(C)CCCC(C#N)(c2ccc(OC)c(OC)c2)C(C)C)cc1OC (centres unmarked) [Verapamil HCl]
0.591

Provide Toxic fingerprint: MTC value for microorganism no. 5 value for the following molecule: O=[N+]([O-])[O-].O=[N+]([O-])[O-].[Ba+2] [Barium nitrate]
1.090

Provide Toxic fingerprint: MTC value for microorganism no. 5 value for the following molecule: [N-]=[N+]=[N-] [Sodium Azide]
0.054

Provide Toxic fingerprint: MTC value for microorganism no. 5 value for the following molecule: [Cl-].[Cl-].[Mg+2] [Magnesium Chloride]
14.800

Provide Toxic fingerprint: MTC value for microorganism no. 5 value for the following molecule: [Cl-].[K+] [Potassium Chloride]
20.100

Provide Toxic fingerprint: MTC value for microorganism no. 5 value for the following molecule: CSc1ccc2c(c1)N(CCC1CCCCN1C)c1ccccc1S2 (centres unmarked) [Tioridazin HCl]
0.029

----------
Tested on: 11 different microbial strains
measurement.setup: MTC value of the strain showing the highest sensitivity
Structures can show the parent of a compound that is named as a salt.
Below, each entry is listed alongside its reported Inhibitory concentrations by method: MARA MTCmin.
A complete answer gives the number followed by the unit.

Consider the following illustrative entries.
C[C@H]1O[C@@H](O[C@H]2[C@@H](O)C[C@H](O[C@H]3[C@@H](O)C[C@H](O[C@H]4CC[C@@]5(C)[C@H](CC[C@@H]6[C@@H]5C[C@@H](O)[C@]5(C)[C@@H](C7=CC(=O)OC7)CC[C@]65O)C4)O[C@@H]3C)O[C@@H]2C)C[C@H](O)[C@@H]1O = 0.104 mg/mL
O=[N+]([O-])[O-].O=[N+]([O-])[O-].[Ba+2] [Barium nitrate] = 0.453 mg/mL
O=S(=O)([O-])[O-].[Li+].[Li+] [Lithium Sulphate] = 3.11 mg/mL
Oc1c(Cl)c(Cl)c(Cl)c(Cl)c1Cl = 0.001 mg/mL
COc1ccc(CCN(C)CCCC(C#N)(c2ccc(OC)c(OC)c2)C(C)C)cc1OC (centres unmarked) [Verapamil HCl] = 0.360 mg/mL

Provide Inhibitory concentrations by method: MARA MTCmin value for the following compound: CSc1ccc2c(c1)N(CCC1CCCCN1C)c1ccccc1S2 (centres unmarked) [Tioridazin HCl]
0.006 mg/mL

Provide Inhibitory concentrations by method: MARA MTCmin value for the following compound: [F-].[Na+] [Sodium Fluoride]
4.890 mg/mL

Provide Inhibitory concentrations by method: MARA MTCmin value for the following compound: "Cn1c(=O)c2c(ncn2C)n(C)c1=O"
0.788 mg/mL
